Entries and their measured Mean % WT Binding follow.
Target: human CD33 I227A (human, UniProt P20138 18-364)
Sequence (P20138 18-364 I227A limits assumed): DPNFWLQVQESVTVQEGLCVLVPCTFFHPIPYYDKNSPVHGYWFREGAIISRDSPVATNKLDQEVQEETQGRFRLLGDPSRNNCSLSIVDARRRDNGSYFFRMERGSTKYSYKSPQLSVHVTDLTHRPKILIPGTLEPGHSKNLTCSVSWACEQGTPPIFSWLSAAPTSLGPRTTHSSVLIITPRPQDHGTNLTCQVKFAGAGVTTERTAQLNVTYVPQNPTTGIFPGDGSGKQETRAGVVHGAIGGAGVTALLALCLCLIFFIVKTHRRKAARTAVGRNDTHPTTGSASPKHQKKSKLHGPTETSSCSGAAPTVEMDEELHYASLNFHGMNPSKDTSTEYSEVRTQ
Assay: alanine scan, flow cytometry, HEK293-T;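 note: antibody binding to each alanine-substituted CD33 mutant expressed transiently in HEK293-T, read as fluorescence minus background, mean of duplicates, relative to wild-type CD33 set as 100%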
Property measured: Mean % WT Binding (%)

Binder | Property measured | Unit symbol | Observed
Refmab #4 (antibody, V domains shown, In the alanine scan antibodies were used as IgG or Fab) VH: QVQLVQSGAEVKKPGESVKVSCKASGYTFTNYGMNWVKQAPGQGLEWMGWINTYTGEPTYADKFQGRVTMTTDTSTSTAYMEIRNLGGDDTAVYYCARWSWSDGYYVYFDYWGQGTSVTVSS VL: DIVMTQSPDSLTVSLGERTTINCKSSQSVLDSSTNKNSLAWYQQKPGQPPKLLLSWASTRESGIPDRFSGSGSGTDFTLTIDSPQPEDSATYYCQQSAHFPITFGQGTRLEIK | Mean % WT Binding | % | 78.7
Refmab #2 (antibody, V domains shown, In the alanine scan antibodies were used as IgG or Fab) VH: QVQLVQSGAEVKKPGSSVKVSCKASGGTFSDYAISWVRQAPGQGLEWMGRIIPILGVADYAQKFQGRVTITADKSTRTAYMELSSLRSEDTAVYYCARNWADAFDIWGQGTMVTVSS VL: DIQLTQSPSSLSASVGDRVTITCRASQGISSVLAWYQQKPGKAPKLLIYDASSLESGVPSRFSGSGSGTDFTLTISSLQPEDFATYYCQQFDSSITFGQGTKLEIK | Mean % WT Binding | % | 110
Refmab #1 (antibody, V domains shown, In the alanine scan antibodies were used as IgG or Fab; also called hP67.6) VH: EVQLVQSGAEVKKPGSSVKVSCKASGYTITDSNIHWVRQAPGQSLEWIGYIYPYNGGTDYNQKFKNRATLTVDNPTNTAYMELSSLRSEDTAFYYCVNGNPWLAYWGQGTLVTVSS VL: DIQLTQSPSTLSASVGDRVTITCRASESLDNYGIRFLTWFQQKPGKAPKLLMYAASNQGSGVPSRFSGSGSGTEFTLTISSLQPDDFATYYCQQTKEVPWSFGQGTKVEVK | Mean % WT Binding | % | 86.7
Refmab #3 (antibody, V domains shown, In the alanine scan antibodies were used as IgG or Fab) VH: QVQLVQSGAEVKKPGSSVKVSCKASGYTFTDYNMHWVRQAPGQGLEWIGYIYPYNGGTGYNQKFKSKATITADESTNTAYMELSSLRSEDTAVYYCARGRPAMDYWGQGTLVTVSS VL: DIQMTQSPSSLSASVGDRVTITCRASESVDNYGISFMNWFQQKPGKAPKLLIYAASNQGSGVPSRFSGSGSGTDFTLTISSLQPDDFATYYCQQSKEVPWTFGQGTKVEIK | Mean % WT Binding | % | 127
